Experiment: yeast display, Sf9 membrane polyspecificity reagent, FACS + sequencing; frameworks hold sequencing errors

# Construct Sequence, polyreactivity (PSR sort gate)
records = [
    ("QVQLVESGGGLVQAGGSLRLSCAASGFIFGNYVMGWYRQAPGKERELVAAITNGGGNTYYADSVKGRFTISRDNAKNTVYLQMNSLKPEDTAVYYCHPLRYYYWGQGTQVTVSS", "high polyreactivity"),
    ("QVQLVESGGGLVQAGGSLRLSCAASGRTSGRYALGWYRQAPGKERELVAAITSSGGSTYYADSVKGRFTISRDTAKNTVYLQMNSLKPEDTAVYYCAAYFRGTGLDRSYKYDYWGQGTQVTVSS", "high polyreactivity"),
    ("QVQLVESGGGLVQAGGSLRLSCAASGFIFSWYAMGWYRQAPGKERELVATISSSGGRTHYADSVKGRFTISRDNAKNTVYLQMNSLKPEDTAVYYCAAQPFSYFTTVYYWGQGTQVTVSS", "high polyreactivity"),
    ("QVQLVDSGGGLVQAGGSLRLSCAASGSIFYRNAMGWSRQAPGKERELVAAITRGGSTYYADSVKGRFTISRDNAKNTVYLQMNSLKPEDTAVYYCNAYGGFAYSYDYWGQGTQVTVSS", "high polyreactivity"),
    ("QVQLVESGGGLVQAGGSLRLSCAASGSTFAGYAMGWYRQAPGKERELVAAISYSGGTTYYADSVKGRFTISRDNAKNTVYLQMNSLKPEDTAVFYCAARKKYKTPSYDMYYWGQGTQVTVSS", "high polyreactivity"),
    ("QVQLVESGGGLVQAGGSLRLSCAASGSIFTTYAMGWYRQAPGKERELVAAISRAGDTTYADSVKGRFTISRDNAKNTVYLQRNSLKPEDTAVYYWGQGTQVTVSS", "low polyreactivity"),
    ("QVQLVESGGGLVQAGGSLRLSCAASGRTYTGYGMGWSRQAPGKERELVAAITWRGDRTYYADSVKGRFTISRDNAKNTVYLQMNSLKPEDTAVYYCNKLGRIQYDYWGQGTQVTVSS", "high polyreactivity"),
    ("QVQLVESGGGLVQAGGSLRLSCAASGFTITHYAMGWYRQAPGKERELVAAISTSGGSTYYADSVKGRFTISRDNAKNTVYLQMNSLKPEDTAVYYCAARRDGWVQWGYYYWGQGTQVTVSS", "low polyreactivity"),
    ("QVQLVESGGGLVQAGGSLRLSWAASGRIFGRYTMGWYTQAPGKERELVAAISSAGSTNYADSVKGRFTISRDNAKNTVYLQMNSLKPEDTAVYYCNRAKYVRYSLHYLGYARDYWGQGTQVTVSS", "high polyreactivity"),
    ("QVQLVESGGGLVQAGGSLRLSCAASGRIFIYYAMGWYRQAPGKERELVAAITRGGNTNYADSVKGRFTISRDNAKNTVYLQMNSLKPEDTAVYYCAAAIRYGSRHRGYWGQGTQVTVSS", "low polyreactivity"),
    ("QVQLVESGGGLVQAGGSLRLSCAASGSTFPVNAMGWYRQAPGKERELVARIRGSGGSTYYADSVKGRFTISRDNAKNTVYLQINSLKPEDTAVYYCAARYIGYSSYKYDYWGQGTQVTVSS", "high polyreactivity"),
]
